Values from patent US20230287003A1

molecular target: human BCL6 BTB domain (Trx-6×His-BCL6) / BCOR-AF633 peptide (Homo sapiens (Human), UniProt P41182); test: HTRF assay; type: binding; settings: 1 nM Trx-6×His-BCL6, 300 nM BCOR-AF633 peptide, 2 hours incubation
Measured HTRF avg pIC50 (1 nM) by item
readout: HTRF avg pIC50 (1 nM)

{"molecule": "O=c1c2c(c3cc(Nc4nc(N5C6CCC5COC6)ncc4Cl)ccc3n1CC1CC(F)(F)C1)N[C@@H](C1CC1)CCO2", "readout": "HTRF avg pIC50 (1 nM)", "meas value": 7.63}
{"molecule": "CCC1CCOc2c(c3cc(Nc4ccnc(Cl)c4C#N)ccc3n(C)c2=O)N1 (centres unmarked)", "readout": "HTRF avg pIC50 (1 nM)", "meas value": 6.32}
{"molecule": "C[C@@H]1CN(c2ncc(Cl)c(Nc3ccc4c(c3)c3c(c(=O)n4CCO)OCC[C@H](C4CC4)N3)n2)C[C@H](C)C1(F)F [Example 16a]", "readout": "HTRF avg pIC50 (1 nM)", "meas value": 7.17}
{"molecule": "Cn1c(=O)c2c(c3cc(Nc4nc(N5C6CCC5COC6)ncc4Cl)ccc31)N[C@@H](C1CC1)C(F)(F)CO2 [Example 12v]", "readout": "HTRF avg pIC50 (1 nM)", "meas value": 8.86}
{"molecule": "CN1CC2CCC(C1)N2c1ncc(Cl)c(Nc2ccc3c(c2)c2c(c(=O)n3C)OCC[C@H](C3CC3)N2)n1 [Example 12i]", "readout": "HTRF avg pIC50 (1 nM)", "meas value": 7.81}
{"molecule": "C[C@@H]1CN(c2ncc(Cl)c(Nc3ccc4c(c3)c3c(c(=O)n4C)C(=O)OC[C@H](C)N3)n2)C[C@H](C)C1(F)F", "readout": "HTRF avg pIC50 (1 nM)", "meas value": 6.80}
{"molecule": "CN1CC2(C1)CN(c1ncc(Cl)c(Nc3ccc4c(c3)c3c(c(=O)n4C)OCC(F)(F)[C@H](C4CC4)N3)n1)C2 [Example 13g]", "readout": "HTRF avg pIC50 (1 nM)", "meas value": 8.50}
{"molecule": "Cn1c(=O)c2c(c3cc(Nc4nc(N5C6CCC5CC(O)C6)ncc4Cl)ccc31)N[C@@H](C1CC1)CCO2 (some centres unmarked) [Example 12f]", "readout": "HTRF avg pIC50 (1 nM)", "meas value": 7.96}
{"molecule": "Cn1c(=O)c2c(c3cc(Nc4nc(N5C6CCC5CS(=O)(=O)C6)ncc4Cl)ccc31)N[C@@H](C1CC1)CCO2 [Example 12j]", "readout": "HTRF avg pIC50 (1 nM)", "meas value": 7.78}
{"molecule": "Cn1c(=O)c2c(c3cc(Nc4nc(N5CCC(F)(F)CC5)ncc4Cl)cnc31)N[C@@H](C1CC1)CCO2", "readout": "HTRF avg pIC50 (1 nM)", "meas value": 7.13}
{"molecule": "CC1CCc2c(c3cc(Nc4ccnc(Cl)c4C#N)ccc3n(C)c2=O)N1 (centres unmarked) [Example 10a]", "readout": "HTRF avg pIC50 (1 nM)", "meas value": 5.84}
{"molecule": "Cn1c(=O)c2c(c3cc(Nc4ccnc(Cl)c4C#N)ccc31)NC(C1CCC1)CO2 (centres unmarked)", "readout": "HTRF avg pIC50 (1 nM)", "meas value": 5.70}
{"molecule": "Cn1c(=O)c2c(c3cc(Nc4nc(N5CCC(F)(F)CC5)ncc4Cl)ccc31)N[C@@H](C1CC1)C(F)(F)CO2 [Example 12n]", "readout": "HTRF avg pIC50 (1 nM)", "meas value": 7.94}
{"molecule": "C[C@H]1COC(=O)c2c(c3cc(Nc4nc(N5C6CCCC5CC6)ncc4Cl)ccc3n(C)c2=O)N1", "readout": "HTRF avg pIC50 (1 nM)", "meas value": 6.85}

###

molecular target: human BCL6 BTB domain (Trx-6×His-BCL6) / BCOR-AF633 peptide (Homo sapiens (Human)); assay: HTRF assay; type: binding; settings: 1 nM Trx-6×His-BCL6, 300 nM BCOR-AF633 peptide, 2 hours incubation
Lab note: compare HTRF avg pIC50 (1 nM) against 7. Equal or greater, write MET. Smaller, write NOT MET.

{"compound": "C[C@H]1CN(c2ncc(Cl)c(Nc3ccc4c(c3)c3c(c(=O)n4C)OCC[C@H](C4CC4)N3)n2)CCC1(F)F (single isomer, unassigned) [Example 14a]", "assigned class": "NOT MET"}
{"compound": "Cn1c(=O)c2c(c3cc(Nc4ccnc(Cl)c4C#N)ccc31)N[C@@H](C1CC1)C(F)(F)CO2 [Example 1v]", "assigned class": "MET"}
{"compound": "CN(C)C(=O)C1CCN(c2ncc(Cl)c(Nc3ccc4c(c3)c3c(c(=O)n4C)C(=O)OC[C@H](C4CC4)N3)n2)CC1 [Example 8m]", "assigned class": "NOT MET"}
{"compound": "Cn1c(=O)c2c(c3cc(Nc4nc(N5C6COCC5CC(O)C6)ncc4Cl)ccc31)NC(C1CC1)C(F)(F)CO2 (centres unmarked) [Example 11a]", "assigned class": "MET"}
{"compound": "CCC1COc2c(c3cc(Nc4ccnc(Cl)c4C#N)ccc3n(C)c2=O)N1 (centres unmarked) [Example 1l]", "assigned class": "NOT MET"}
{"compound": "Cn1c(=O)c2c(c3cc(Nc4nc(N5C6COCC5CC(O)C6)ncc4Cl)cnc31)N[C@@H](C1CC1)CCO2 (some centres unmarked) [Example 11b]", "assigned class": "MET"}
{"compound": "C[C@H]1COC(=O)c2c(c3cc(Nc4nc(N5CC6CCC(C6)C5)ncc4Cl)ccc3n(C)c2=O)N1 [Example 8h]", "assigned class": "NOT MET"}
{"compound": "Cn1c(=O)c2c(c3cc(Nc4nc(-n5ccc(C(F)(F)F)n5)ncc4Cl)ccc31)NC1(CCOC1)CCO2 (centres unmarked) [Example 5j]", "assigned class": "NOT MET"}
{"compound": "C[C@H]1COC(=O)c2c(c3cc(Nc4cc(OC5CCOCC5)ncc4Cl)ccc3n(C)c2=O)N1 [Example 7a]", "assigned class": "NOT MET"}
{"compound": "Cn1c(=O)c2c(c3cc(Nc4ccnc(Cl)c4C#N)ccc31)NC(C1CC1)CO2 (centres unmarked) [Example 1m]", "assigned class": "NOT MET"}
{"compound": "C[C@H]1COC(=O)c2c(c3cc(Nc4nc(N5C6CCC5CC(F)(F)C6)ncc4Cl)ccc3n(C)c2=O)N1 [Example 8f]", "assigned class": "NOT MET"}
{"compound": "C[C@@H]1CN(c2ncc(Cl)c(Nc3cnc4c(c3)c3c(c(=O)n4C)OCC[C@H](C4CC4)N3)n2)C[C@H](C)C1(F)F [Example 5t]", "assigned class": "NOT MET"}

###

// IC50 lookup, one value per entry
molecular target: human BCL6 BTB domain (Trx-6×His-BCL6) / BCOR-AF633 peptide (Homo sapiens (Human)); assay: HTRF assay; format: binding; conditions: HTRF avg pIC50 (1 nM), 1 nM Trx-6×His-BCL6, 300 nM BCOR-AF633 peptide, 2 hours incubation
readout: IC50 (nM)

{"molecule": "Cn1c(=O)c2c(c3cc(Nc4nc(N5CC6CCC(C5)O6)ncc4Cl)ccc31)N[C@@H](C1CC1)C(F)(F)CO2 [Example 12u]", "readout": "IC50", "meas value": 2.63}
{"molecule": "CC1Nc2c(c(=O)n(C)c3ccc(Nc4nc(N5C[C@H](C)C[C@H](C)C5)ncc4Cl)cc23)C(=O)OC1C (mixture of isomers) [Example 8p]", "readout": "IC50", "meas value": 275}
{"molecule": "CC1Nc2c(c(=O)n(C)c3ccc(Nc4nc(N5C[C@H](C)C[C@H](C)C5)ncc4Cl)cc23)C(=O)OC1C (mixture of isomers) [Example 8q]", "readout": "IC50", "meas value": 479}
{"molecule": "Cn1c(=O)c2c(c3cc(Nc4ccnc(Cl)c4C#N)ccc31)N[C@@H](C1CC1)COC2=O [Example 6b]", "readout": "IC50", "meas value": 166}
{"molecule": "Cn1c(=O)c2c(c3cc(Nc4cc(C(=O)O)nc(Cl)c4C#N)ccc31)N[C@@H](C1CC1)CCO2 [Example 2b]", "readout": "IC50", "meas value": 8.91}
{"molecule": "CC1Nc2c(c(=O)n(C)c3ccc(Nc4ccnc(Cl)c4C#N)cc23)C(=O)OC1C (stereo not drawn) [Example 6d]", "readout": "IC50", "meas value": 214}

###

Biological target: endogenous BCL6 protein in SUDHL-4 cells (Homo sapiens (Human))
Assay: Immunofluorescence-based BCL6 degradation assay (SUDHL4)
Format: cell-based
Settings: 2 hours with compound, DC50 = concentration at which 50% of endogenous BCL6 protein is degraded
Procedure: DC50 values (compound concentration at which 50% of endogenous BCL6 protein is degraded) were determined in SUDHL-4 cells (American Type Culture Collection) in an immunofluorescence-based assay using an InCell2200 high content imaging system (GE Healthcare). […] BCL6 expression in the absence or presence of compound was detected on InCell2200 with 20× objective and quantified on InCell Analyser 3.7.2 workstation (GE Healthcare). […]
SUDHL4 avg pDC50 values for the compounds below.
readout: SUDHL4 avg pDC50

{"smiles text": "C[C@@H]1C[C@H](C)CN(c2ncc(Cl)c(Nc3ccc4c(c3)c3c(c(=O)n4C)OCC[C@H](C)N3)n2)C1", "readout": "SUDHL4 avg pDC50", "meas value": 6.22}
{"smiles text": "C[C@@H]1CN(c2ncc(Cl)c(Nc3ccc4c(c3)c3c(c(=O)n4C)OCC[C@H](C)N3)n2)C[C@H](C)C1(F)F", "readout": "SUDHL4 avg pDC50", "meas value": 6.63}
{"smiles text": "Cn1c(=O)c2c(c3cc(Nc4nc(N5CCC(F)(F)CC5)ncc4Cl)ccc31)N[C@@H](C1CC1)CCO2", "readout": "SUDHL4 avg pDC50", "meas value": 6.84}
{"smiles text": "C[C@@H]1CN(c2ncc(Cl)c(Nc3ccc4c(c3)c3c(c(=O)n4C)OCC[C@H](C4CC4)N3)n2)C[C@H](C)C1(F)F", "readout": "SUDHL4 avg pDC50", "meas value": 6.79}
{"smiles text": "C[C@@H]1CN(c2ncc(Cl)c(Nc3ccc4[nH]c(=O)c5c(c4c3)N[C@@H](C3CC3)CCO5)n2)C[C@H](C)C1(F)F", "readout": "SUDHL4 avg pDC50", "meas value": 6.87}
{"smiles text": "C[C@@H]1CN(c2ncc(Cl)c(Nc3ccc4c(c3)c3c(c(=O)n4C)C(=O)OC[C@H](C)N3)n2)C[C@H](C)C1(F)F", "readout": "SUDHL4 avg pDC50", "meas value": 6.78}
{"smiles text": "C[C@@H]1CN(c2ncc(Cl)c(Nc3cnc4c(c3)c3c(c(=O)n4C)OCC[C@H](C4CC4)N3)n2)C[C@H](C)C1(F)F", "readout": "SUDHL4 avg pDC50", "meas value": 6.54}
{"smiles text": "C[C@@H]1C[C@H](C)CN(c2ncc(Cl)c(Nc3ccc4c(c3)c3c(c(=O)n4C)C(=O)OC[C@H](C)N3)n2)C1", "readout": "SUDHL4 avg pDC50", "meas value": 6.50}
